- TARGET SYSTEM: T1, 人B7-H3变体1(4Ig-B7-H3) on stable cells 293-h4Ig-B7-H3-copGFP (human, UniProt Q5ZPR3 29-534)
- T1 construct: Full-length CDS cloned in pCDH-EF1-T2A-copGFP and expressed on stably transduced cells; residues left by T2A cleavage not described
- T1 sequence: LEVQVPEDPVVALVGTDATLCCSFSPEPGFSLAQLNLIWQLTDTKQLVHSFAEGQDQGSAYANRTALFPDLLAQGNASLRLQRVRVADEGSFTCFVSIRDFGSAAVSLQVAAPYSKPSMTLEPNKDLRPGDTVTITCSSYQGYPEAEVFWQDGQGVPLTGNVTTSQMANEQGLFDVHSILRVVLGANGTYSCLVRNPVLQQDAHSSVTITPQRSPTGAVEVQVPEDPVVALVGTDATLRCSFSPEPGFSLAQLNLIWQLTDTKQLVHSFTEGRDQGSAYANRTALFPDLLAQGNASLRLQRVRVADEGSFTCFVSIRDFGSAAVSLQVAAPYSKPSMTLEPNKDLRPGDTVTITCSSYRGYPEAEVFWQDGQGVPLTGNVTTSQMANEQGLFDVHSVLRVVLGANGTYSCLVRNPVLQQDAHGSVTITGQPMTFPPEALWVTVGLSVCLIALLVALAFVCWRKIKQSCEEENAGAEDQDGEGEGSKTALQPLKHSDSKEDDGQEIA
- MEASUREMENT PROTOCOL: FACS, 293-h4Ig-B7-H3-copGFP stable cells
PARAMETER MEASURED: binding result

scFv-27B4-H4-L3 (scFv, Expressed from phage display vector pXY in TG1, purified on a nickel column) scFv: EVQLVQSGAEVKKPGESLKISCKASGYTFTTYWIGWVRQMPGKGLEWMGIIYPGDGGSRYSPSFQGQVTISADKSISTAYLQWSSLKASDTAMYYCARGGNYISFPMYYWGQGTLVTVSSGGGGSGGGGSGGGGSGGGGASEIVMTQSPATLSVSPGERATLSCKASRGVSTALAWYQQKPGQAPRLLIYWASTRATGIPARFSGSGSGTEFTLTISSLQSEDFAVYYCQQHYDTPYTFGQGTKLEIK ... binds
h27B4-H2-L3 (antibody, human IgG1, kappa, V domains shown, Whole IgG, humanized; optimized hIgG1 (L235V, F243L, R292P, Y300L, P396L) and human kappa; also called zw.M0883B9.27B4Z03) VH: QVQLVQSGAEVKKPGSSVKVSCKASGYTFTTYWISWVRQAPGQGLEWMGGIYPGDGGSNYAQKFQGRVTITADESTSTAYMELSSLRSEDTAVYYCARGGNYISFPMYYWGQGTLVTVSS VL: EIVMTQSPATLSVSPGERATLSCKASRGVSTALAWYQQKPGQAPRLLIYWASTRATGIPARFSGSGSGTEFTLTISSLQSEDFAVYYCQQHYDTPYTFGQGTKLEIKR ... binds
